Items are presented alongside their recorded Alpha2A Intrinsic Activity.
- TARGET: alpha2A receptor (Homo sapiens, UniProt P08913)
- METHOD SUMMARY: Alpha2A agonistic activity in vitro
- Type: cell-based
- EXPERIMENTAL CONTEXT: in vitro
Lab note: jot down the number only; don't add units.

Sample answers from the record:
FC(F)(F)Cc1cccc2c1CCOC2C1=NCCN1 (centres unmarked) :: 0.09
CC1(C2=NCCN2)OCCc2c(C(O)C(C)(C)C)cccc21 (single isomer, unassigned) [Example 14] :: 0.43
CCC1Cc2c(OC)cccc2C(C2=NCCN2)O1 (centres unmarked) :: 0.45

input: Alpha2A Intrinsic Activity of FC(F)(F)Oc1cccc2c1CCOC2C1=NCCN1 (centres unmarked) on alpha2A receptor (Homo sapiens, UniProt P08913)?
output: 0.30

input: Alpha2A Intrinsic Activity of COc1cccc2c1C[C@@H](C)OC2(C)C1=NCCN1 (some centres unmarked) on alpha2A receptor (Homo sapiens, UniProt P08913)?
output: 0.33

input: Alpha2A Intrinsic Activity of FC(F)(F)CC1Cc2c(Br)cccc2C(C2=NCCN2)O1 (single isomer, unassigned) [Example 83] on alpha2A receptor (Homo sapiens, UniProt P08913)?
output: 0.41

input: Alpha2A Intrinsic Activity of Brc1cccc2c1CCSC2C1=NCCN1 (centres unmarked) on alpha2A receptor (Homo sapiens, UniProt P08913)?
output: 0.56

input: Alpha2A Intrinsic Activity of CC1(C2=NCCN2)OCc2cccc3cccc1c23 (centres unmarked) [Example 98] on alpha2A receptor (Homo sapiens, UniProt P08913)?
output: 0.58

input: Alpha2A Intrinsic Activity of CCc1cccc2c1C[C@@H](C)OC2(C)C1=NCCN1 (some centres unmarked) on alpha2A receptor (Homo sapiens, UniProt P08913)?
output: 0.19

input: Alpha2A Intrinsic Activity of C[C@@H]1Cc2c(cccc2C(F)(F)F)C(C2=NCCN2)O1 (some centres unmarked) on alpha2A receptor (Homo sapiens, UniProt P08913)?
output: 0.81

input: Alpha2A Intrinsic Activity of CC1Cc2c(Br)cccc2C(C2=NCCN2)S1 (centres unmarked) on alpha2A receptor (Homo sapiens, UniProt P08913)?
output: 0.85

input: Alpha2A Intrinsic Activity of COc1cccc2c1CCOC2(C)C1=NCCN1 (centres unmarked) on alpha2A receptor (Homo sapiens, UniProt P08913)?
output: 0.19

----------
Items are presented alongside their recorded EC50.
- TARGET: alpha2A receptor (Homo sapiens)
- METHOD SUMMARY: Alpha2A agonistic activity in vitro
- Type: cell-based
- EXPERIMENTAL CONTEXT: in vitro; read-out: Alpha2A Agonism pEC50 (converted)
# value in nM; strip the unit string

Sample answers from the record:
C[C@@H]1Cc2c(OC(F)(F)F)cccc2C(C2=NCCN2)O1 (stereo partly drawn) [Example 49] :: 126
CC1(C2=NCCN2)OCCc2c(C(O)C(C)(C)C)cccc21 (single isomer, unassigned) [Example 14] :: 3160
CC(C)c1cccc2c1CCOC2C1=NCCN1 (stereo not drawn) [Example 41] :: 251
Cc1cccc2c1CC(CC(F)(F)F)OC2C1=NCCN1 (stereo not drawn) [Example 52] :: 100

input: Which measured EC50 value corresponds to CCOc1cccc2c1CCOC2C1=NCCN1 (stereo not drawn) [Example 51] ?
output: 631

input: Which measured EC50 value corresponds to CC1(C2=NCCN2)SCCc2c(Br)cccc21 (stereo not drawn) [Example 66] ?
output: 1580

input: Which measured EC50 value corresponds to CC1Cc2c(Cl)cccc2C(C)(C2=NCCN2)O1 (stereo not drawn) [Example 28] ?
output: 1000

input: Which measured EC50 value corresponds to Cc1cc(O)cc2c1CCOC2C1=NCCN1 (stereo not drawn) [Example 75] ?
output: 631

input: Which measured EC50 value corresponds to Cc1cc(Br)cc2c1CCOC2C1=NCCN1 (stereo not drawn) [Example 60] ?
output: 126

----------
- TARGET: alpha2A receptor (Homo sapiens)
- METHOD SUMMARY: Alpha2A agonistic activity in vitro
- Format: cell-based
- EXPERIMENTAL CONTEXT: in vitro; read-out: Alpha2A Agonism pEC50 (converted)
MEASURED PROPERTY: EC50 (nM)
# value in nM; strip the unit string

CC[C@@H]1Cc2c(cccc2C(F)(F)F)C(C2=NCCN2)O1 (stereo partly drawn) :: 50.1
Cc1cccc2c1CC(CC(F)(F)F)OC2C1=NCCN1 (single isomer, unassigned) [Example 86] :: 100
COc1cccc2c1CCSC2C1=NCCN1 (stereo not drawn) :: 2000

We next turn to a different compound, shown below.
input: Which measured EC50 value corresponds to Cc1cccc2c1CC(CCF)OC2C1=NCCN1 (stereo not drawn) ?
output: 158

----------
- TARGET: alpha2A receptor (Homo sapiens, UniProt P08913)
- METHOD SUMMARY: Alpha2A agonistic activity in vitro
- Format: cell-based
- EXPERIMENTAL CONTEXT: in vitro
MEASURED PROPERTY: Alpha2A Intrinsic Activity
Lab note: jot down the number only; don't add units.

Sample answers from the record:
Cc1cccc2c1CCOC2(C)C1=NCCN1 (stereo not drawn) [Example 3] :: 0.95
FC(F)c1cccc2c1CCOC2C1=NCCN1 (stereo not drawn) [Example 99] :: 0.73
COc1cccc2c1CCOC2C1=NCCN1 (single isomer, unassigned) [Example 82] :: 0.52
COc1cccc2c1CC(C)OC2C1=NCCN1 (stereo not drawn) [Example 38] :: 0.92
FC(F)Oc1cccc2c1CCOC2C1=NCCN1 (stereo not drawn) [Example 90] :: 0.66

We next turn to a different molecule, shown below.
input: Which measured Alpha2A Intrinsic Activity value corresponds to CC1(C2=NCCN2)OCCc2c(C3CC3)cccc21 (stereo not drawn) [Example 24] ?
output: 0.20

----------
Items are presented alongside their recorded pEC50.
- TARGET: alpha2A receptor (Homo sapiens)
- METHOD SUMMARY: Alpha2A agonistic activity in vitro
- Type: cell-based
- EXPERIMENTAL CONTEXT: Alpha2A Agonism pEC50, in vitro
Please report pEC50 as the negative decimal logarithm of the molar concentration, giving only the number.

Sample answers from the record:
FC(F)c1cccc2c1CCOC2C1=NCCN1 (stereo not drawn) [Example 99] :: 7.90
FC(F)Oc1cccc2c1CCOC2C1=NCCN1 (stereo not drawn) [Example 90] :: 7.40

input: Which measured pEC50 value corresponds to Cc1cccc2c1CCOC2(C)C1=NCCN1 (single isomer, unassigned) [Example 21] ?
output: 7.30

----------
- TARGET: alpha2A receptor (Homo sapiens)
- Sequence (P08913 1-465): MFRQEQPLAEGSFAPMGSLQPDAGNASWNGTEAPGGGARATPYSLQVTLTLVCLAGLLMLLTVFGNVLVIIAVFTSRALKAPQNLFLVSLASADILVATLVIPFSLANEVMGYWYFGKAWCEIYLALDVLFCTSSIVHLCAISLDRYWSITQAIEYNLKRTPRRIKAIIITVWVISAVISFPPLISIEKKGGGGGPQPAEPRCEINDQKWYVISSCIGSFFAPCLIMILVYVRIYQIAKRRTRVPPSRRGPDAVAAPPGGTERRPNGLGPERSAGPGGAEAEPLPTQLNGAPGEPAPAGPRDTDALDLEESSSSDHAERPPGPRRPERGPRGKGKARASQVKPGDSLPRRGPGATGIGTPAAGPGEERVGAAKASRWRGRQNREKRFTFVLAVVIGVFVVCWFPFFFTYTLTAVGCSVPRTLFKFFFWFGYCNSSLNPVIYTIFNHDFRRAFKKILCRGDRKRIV
- METHOD SUMMARY: Alpha2A agonistic activity in vitro
- Assay type: cell-based
- EXPERIMENTAL CONTEXT: in vitro
MEASURED PROPERTY: Alpha2A Intrinsic Activity

Brc1cccc2c1CCOC2C1=NCCN1 (centres unmarked) [Example 2] :: 0.85
Cc1cccc2c1CCOC2C1=NCCN1 (centres unmarked) :: 0.89
C[C@H]1Cc2c(Br)cccc2C(C2=NCCN2)O1 (some centres unmarked) :: 0.80
Cc1cccc2c1CC(C)OC2(C)C1=NCCN1 (centres unmarked) :: 0.60

input: Which measured Alpha2A Intrinsic Activity value corresponds to COc1cc(C)c2c(c1)C(C1=NCCN1)OC(C)C2 (centres unmarked) ?
output: 0.22

input: Which measured Alpha2A Intrinsic Activity value corresponds to COc1cccc2c1CCOC2C1=NCCN1 (single isomer, unassigned) [Example 97] ?
output: 0.69

input: Which measured Alpha2A Intrinsic Activity value corresponds to C[C@@H]1Cc2c(Br)cccc2C(C2=NCCN2)O1 (some centres unmarked) ?
output: 0.92

input: Which measured Alpha2A Intrinsic Activity value corresponds to Cc1cccc2c1CC(CCF)OC2C1=NCCN1 (centres unmarked) ?
output: 0.54

input: Which measured Alpha2A Intrinsic Activity value corresponds to CC1Cc2c(Br)cccc2C(C)(C2=NCCN2)O1 (centres unmarked) ?
output: 0.43

input: Which measured Alpha2A Intrinsic Activity value corresponds to Oc1cccc2c1CCOC2C1=NCCN1 (centres unmarked) ?
output: 0.73

input: Which measured Alpha2A Intrinsic Activity value corresponds to CC[C@@H]1Cc2c(cccc2C(F)(F)F)C(C2=NCCN2)O1 (some centres unmarked) ?
output: 0.51

input: Which measured Alpha2A Intrinsic Activity value corresponds to Cc1cccc2c1CC(CC(F)(F)F)OC2C1=NCCN1 (centres unmarked) [Example 52] ?
output: 0.41

input: Which measured Alpha2A Intrinsic Activity value corresponds to Cc1cc(O)cc2c1CCOC2C1=NCCN1 (centres unmarked) ?
output: 0.64

input: Which measured Alpha2A Intrinsic Activity value corresponds to CCC1Cc2c(C)cccc2C(C2=NCCN2)O1 (centres unmarked) ?
output: 0.69

input: Which measured Alpha2A Intrinsic Activity value corresponds to C[C@@H]1Cc2c(OC(F)F)cccc2C(C2=NCCN2)O1 (some centres unmarked) ?
output: 0.64

input: Which measured Alpha2A Intrinsic Activity value corresponds to CCc1cccc2c1C[C@@H](C)OC2C1=NCCN1 (some centres unmarked) ?
output: 0.73

input: Which measured Alpha2A Intrinsic Activity value corresponds to CCc1cccc2c1CCOC2C1=NCCN1 (centres unmarked) [Example 8] ?
output: 0.77

input: Which measured Alpha2A Intrinsic Activity value corresponds to Cc1cccc2c1C[C@@H](C)OC2C1=NCCN1 (some centres unmarked) ?
output: 0.90

input: Which measured Alpha2A Intrinsic Activity value corresponds to CCC1Cc2c(Br)cccc2C(C2=NCCN2)O1 (single isomer, unassigned) [Example 94] ?
output: 0.55

input: Which measured Alpha2A Intrinsic Activity value corresponds to CC1(C2=NCCN2)OCCc2c(Br)cccc21 (single isomer, unassigned) [Example 106] ?
output: 0.64
